endpoint: melting point (°C)

Consider the following illustrative entries.
Bench note: what melting point did N#Cc1c(F)cc(Cl)cc1F show? 102

// query: C=NCC#N 129

// query: CC(C)(C)OC(=O)NCCCC(=O)O 55

// query: O=Cc1ccc(Cl)c(F)c1 47

// query: O=C1/C(=C\c2ccc(Cl)cc2)SC(=S)N1CN1CCCCC1 122

1: CCCCCCC(C=O)=Cc1ccccc1
2: CN(C)c1ccc(C=C2C(=O)OC(C)(C)OC2=O)cc1
3: O=[N+]([O-])c1ccc(Oc2ccccc2)c([N+](=O)[O-])c1
4: CC(=O)Oc1c(-c2cccc(-c3[nH]c4cc([N+](=O)[O-])ccc4c3OC(C)=O)c2)[nH]c2cc([N+](=O)[O-])ccc12
Please give the order of these compounds when sorted by melting point, largest value leading. Provide the labels, sequenced as the question asks. 4, 2, 3, 1
(4: 304 °C, 2: 162 °C, 3: 71 °C, 1: 39.2 °C)

----------
// melting point lookup, one value per entry

Consider the following illustrative entries.
Bench note: what melting point did Cc1cc(O)cc2c1C(=O)CC(C)(C)O2 show? 189 to 191 °C

// query: COC(=O)C1(C(=O)OC)Cc2cc(C)ccc2C(=O)O1 135 to 136 °C

// query: Nc1ncc(Br)cn1 239 to 244 °C

New cases:
Bench note: what melting point did C/C(=N/NC(N)=S)C(=O)Nc1ccccc1 show? 211 to 213 °C

// query: O=C(C=Cc1ccc(-c2ccc([N+](=O)[O-])cc2)o1)c1ccccc1 157 to 158 °C

// query: CC(=O)Nc1ccc([N+](=O)[O-])c(C(F)(F)F)c1 108 to 109 °C

// query: CCSC(SCC)C(O)C(O)C(O)C(O)CO (stereo unspecified) 140 to 142 °C

// query: N#Cc1ccc(N)c(N)c1 144 to 145 °C

----------
endpoint: melting point

Consider the following illustrative entries.
Bench note: what melting point did NNC(=O)c1ccc(-c2ccccc2F)cc1 show? 153 to 155 °C

// query: COC(=O)c1sc(SC)c(S(=O)(=O)C(C)C)c1I 193 to 195 °C

New cases:
Bench note: what melting point did O=C(Cl)c1ccc(-c2ccsc2)cc1 show? 145 to 147 °C

----------
// melting point lookup, one value per entry

Bench note: what melting point did Cc1ccccc1CCC(=O)O show? 104 to 106 °C

// query: COc1ccc2nc(C#N)sc2c1 128 to 131 °C

// query: COc1ccc(C(=O)C=Cc2ccc(-c3ccccc3OC)o2)cc1OC 144 to 145 °C

// query: N#CCc1nc(-c2ccc3c(c2)OCCO3)cs1 116 to 118 °C

// query: O=P(c1ccccc1)(c1ccccc1)C1C=COC2=C1CCCC2 (stereo unspecified) 176 to 177 °C

New cases:
Bench note: what melting point did O=C(O)c1cncnc1 show? 259 to 261 °C

// query: O=[N+]([O-])c1ccc2c(c1)S(=O)(=O)CC2SCCO (stereo unspecified) 127 to 129 °C

// query: CC1(C)N=C(c2ccccc2)C=[N+]1[O-] 108 to 111 °C

----------
endpoint: melting point

Consider the following illustrative entries.
Bench note: what melting point did C1CCC(C2CCCCC2)CC1 show? 3 to 4 °C

// query: Cc1cc(C)n(N=Cc2ccccc2)c(=O)c1C#N 194 to 195 °C

Now for the compound whose melting point we want.
Bench note: what melting point did COc1ccc(C(=O)Cl)cc1OC1CCCC1 show? 46 to 47 °C

----------
// melting point lookup, one value per entry

Consider the following illustrative entries.
Bench note: what melting point did C[C@@]12CCC[C@@]1(O)[C@@H]1CC=C3CC(O)CC[C@]3(C)[C@H]1CC2 (stereo partly drawn) show? 201 to 203 °C

// query: Fc1ccc(-n2cc[nH]c2=S)cc1 207 to 209 °C

New cases:
Bench note: what melting point did CCOC(=O)c1c(NC(=O)C(Cl)Cl)sc2c1CCCC2 show? 120 to 122 °C

// query: c1cnc(SSc2ncccn2)nc1 139 to 141 °C

// query: BrCc1ccc(OC2CCOCC2)cc1 56 to 58 °C

// query: Oc1cc(-c2ccccc2)c2cc(Br)cc(Br)c2n1 210 to 211 °C

// query: COc1ccc(C(=O)c2cccs2)cc1 73 to 76 °C

// query: CCOC(=O)CCC(=O)OC(C(=O)c1ccccc1)c1ccccc1 (stereo not drawn) 48 to 57 °C

----------
endpoint: melting point

Bench note: what melting point did Fc1c(F)c(Cl)c(F)c(F)c1S show? 47 to 52 °C

New cases:
Bench note: what melting point did O=C(Cl)c1ccc(-c2csnn2)cc1 show? 168 to 171 °C

// query: N#Cc1ccc(Cn2cccn2)cc1 80 to 82 °C

// query: ClCc1csc(-c2ccccc2)n1 49 to 50 °C

// query: NNC(=O)N1N=C(c2ccccc2)CCC1=O 166 to 168 °C

// query: OCc1ccc2sccc2c1 91 to 92 °C

// query: O=C1C(=C2C=Cc3cc(-c4ccccc4)ccc3N2)C(=O)c2ccccc21 270 to 271 °C

----------
endpoint: melting point

Consider the following illustrative entries.
Bench note: what melting point did Cc1[nH]c2c([N+](=O)[O-])cccc2c1C show? 160 to 165 °C

// query: CCOC(=O)NNC(=O)NC1CCCCC1 115 to 117 °C

Now for the molecule whose melting point we want.
Bench note: what melting point did O=C1CC2C(CC(OC(=O)c3ccccc3)C2CO)O1 (single isomer, unassigned; (-)) show? 116 to 120 °C

----------
// melting point lookup, one value per entry

Consider the following illustrative entries.
Bench note: what melting point did Brc1ccc(-c2cnco2)cc1 show? 78 to 79 °C

// query: CC(=O)/C=C/c1ccc([N+](=O)[O-])o1 192 to 195 °C

New cases:
Bench note: what melting point did Oc1c(Cl)cc(F)cc1Cl show? 49 to 52 °C

// query: N#Cc1c(C(F)(F)F)cc(Cl)nc1Cl 38 to 40 °C

----------
endpoint: melting point (°C)

P: CCCCOC(=O)CC(O)(CC(=O)OCCCC)C(=O)OCCCC
Q: CCOC(=O)C1C(c2ccc(F)cc2)C(C(=O)OCC)C(O)(C(F)(F)F)NC1(O)C(F)(F)F (stereo not drawn)
Hey, between P and Q which has a smaller measured melting point? Answer by stating the label of the chosen item. P
(P: -20 °C, Q: 84 °C)

----------
endpoint: melting point

Bench note: what melting point did Cc1ncc(C=O)n1C show? 76 to 77 °C

// query: O=C(O)C=Cc1ccc(-c2ccc(F)cc2F)o1 218 to 220 °C

// query: CC(=O)Nc1c(C)cc(Cl)cc1Cl 174 to 176 °C

// query: ON=CC1=C(C#Cc2ccccc2)CCC1 105 to 106 °C

// query: Nc1ccc(NC(=O)c2ccc(N)cc2)cc1 203 to 207 °C

// query: Cc1noc(-c2ccccc2CO)n1 91 to 92 °C

// query: COc1cc(CCl)c(OC)cc1CCl 164 to 165 °C

// query: CCC(CC)C(N)CC(=O)O (stereo not drawn) 213 to 214 °C

// query: NNC(=O)CN1c2ccccc2Sc2ccccc21 216 to 218 °C

// query: Oc1ccc(C2(c3ccc(O)cc3)CC3CC2C2CCCC32)cc1 (stereo not drawn) 219 to 221 °C

New cases:
Bench note: what melting point did O=C(O)C=Cc1c(Cl)cccc1Cl show? 192 to 196 °C

// query: CCOC(=O)c1c(NC(=S)NCc2ccccc2)sc2c1CCCC2 125 to 127 °C

// query: Cc1onc(-c2ccccc2)c1C(=O)CBr 46 to 48 °C

// query: O=C(O)c1cc(I)ccc1O 196 to 201 °C

// query: COC1C(O)C(O)C(O)C(O)C1O (single isomer, unassigned; (-)) 190 to 198 °C

// query: CN1CCCN(c2ccc(C#N)cc2)CC1 93 to 94 °C

// query: Cc1c(C(=O)O)cc(-c2ccccc2)n1-c1ccccc1 226 to 227 °C

// query: Cc1ccc(C=C2C(N)=NC(=O)N=C2N)cc1 172 to 173 °C

----------
endpoint: melting point (°C)

Consider the following illustrative entries.
Bench note: what melting point did Cc1ccc(C=O)c(Br)c1 show? 35

// query: CC(C)(C)C1=CC(=NO)C=C(C(C)(C)C)C1=O 219

// query: Cc1ccc(C(=O)C2=NOC3C(=O)N(c4ccc(F)cc4)C(=O)C23)cc1 (stereo not given) 173

// query: Cc1ccc(/N=N/c2c(N)nn3c(C(F)(F)F)cc(C)nc23)c(C)c1 220

// query: N#Cc1c(-c2ccc(Br)cc2)cc2c(C#N)c(=N)n(C(=O)c3ccc(Cl)cc3)n2c1N 190

// query: Nc1c(CN2CCCC2)c(=O)oc2ccccc12 197

// query: COC1(C=O)C=CC2=C(C1)OCO2 (stereo not given) 129

// query: c1coc(P(c2ccco2)c2ccco2)c1 62

// query: CC1(C)CON(Cc2ccccc2Cl)C1=O 33.9

// query: CC(=O)Nc1ccccc1CCc1ccccc1 117

A: NCCNCCNCCN
B: COC(=O)C1(S(=O)(=O)c2ccc(Br)cc2)CCCC1
C: NCCCCCCCC(=O)O
D: CC(=N[Si](C)(C)C)O[Si](C)(C)C
Please give the order of these compounds when sorted by melting point, largest value leading. Provide the labels, sequenced as the question asks. C, B, D, A
